Sourced from paper PMC5773961

- SYSTEM: α6+/γ2− BZ site (Rattus norvegicus, UniProt P18508+P30191)
- Sequence (P30191 20-453): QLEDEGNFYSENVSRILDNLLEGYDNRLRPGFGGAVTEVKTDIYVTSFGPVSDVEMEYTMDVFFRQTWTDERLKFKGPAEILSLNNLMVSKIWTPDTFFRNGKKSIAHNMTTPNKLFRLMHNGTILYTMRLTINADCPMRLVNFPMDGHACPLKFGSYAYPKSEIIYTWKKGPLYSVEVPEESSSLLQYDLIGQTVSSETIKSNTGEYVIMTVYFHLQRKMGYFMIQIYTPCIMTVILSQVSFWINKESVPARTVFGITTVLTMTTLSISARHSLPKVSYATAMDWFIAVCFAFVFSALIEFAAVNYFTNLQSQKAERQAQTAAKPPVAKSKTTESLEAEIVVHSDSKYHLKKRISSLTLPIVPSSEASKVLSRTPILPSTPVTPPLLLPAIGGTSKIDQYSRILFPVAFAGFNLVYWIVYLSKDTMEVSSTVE
- Sequence (P18508 39-466): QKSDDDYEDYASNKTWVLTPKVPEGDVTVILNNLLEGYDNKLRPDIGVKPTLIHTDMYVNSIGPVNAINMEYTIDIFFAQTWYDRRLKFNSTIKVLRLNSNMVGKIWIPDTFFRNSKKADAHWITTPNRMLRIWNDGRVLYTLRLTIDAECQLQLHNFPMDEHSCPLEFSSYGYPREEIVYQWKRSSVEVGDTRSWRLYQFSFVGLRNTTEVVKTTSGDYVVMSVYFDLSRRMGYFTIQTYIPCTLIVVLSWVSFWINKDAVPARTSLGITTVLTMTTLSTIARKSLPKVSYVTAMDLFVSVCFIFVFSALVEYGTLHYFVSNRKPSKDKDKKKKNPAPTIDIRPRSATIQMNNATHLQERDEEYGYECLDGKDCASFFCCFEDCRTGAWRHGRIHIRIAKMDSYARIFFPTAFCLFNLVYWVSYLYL
- TEST_METHOD_NOTES: Saturation binding of [3H]Ro15-4513 to rat cerebellar membranes
- SETTINGS: presence of diazepam, rat cerebellum, n=3
METRIC: Kd
State the result as a value with its unit after it.

Exercise: // fetch α6+/γ2− BZ site (Rattus norvegicus, UniProt P18508+P30191) Kd for CCOC(=O)c1ncn2c1CN(C)C(=O)c1cc(N=[N+]=[N-])ccc1-2 [[3H]Ro15-4513]
Solution: 1.4 nM

* * *

- SYSTEM: α6β3γ2 GABAA receptors (Rattus norvegicus, UniProt P30191+P63079)
- Sequence (P30191 20-453): as the sequence (P30191 20-453) above
- Sequence (P63079 26-473): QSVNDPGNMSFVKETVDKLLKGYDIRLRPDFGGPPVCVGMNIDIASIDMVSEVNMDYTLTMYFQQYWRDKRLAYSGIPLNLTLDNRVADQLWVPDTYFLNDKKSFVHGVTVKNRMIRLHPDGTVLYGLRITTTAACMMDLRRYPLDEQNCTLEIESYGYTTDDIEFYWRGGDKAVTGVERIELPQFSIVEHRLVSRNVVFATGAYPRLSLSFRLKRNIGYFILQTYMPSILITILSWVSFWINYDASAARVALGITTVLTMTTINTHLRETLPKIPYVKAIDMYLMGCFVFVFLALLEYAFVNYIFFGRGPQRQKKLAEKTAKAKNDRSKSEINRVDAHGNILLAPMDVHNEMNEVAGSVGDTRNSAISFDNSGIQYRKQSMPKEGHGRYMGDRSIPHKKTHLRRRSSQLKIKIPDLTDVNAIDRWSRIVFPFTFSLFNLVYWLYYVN
- Sequence (P18508 39-466 partner): as the sequence (P18508 39-466) above
METRIC: pEC50
Interpret pEC50 as the negative base-10 log of the concentration measured in mol/L.

Exercise: Quick one: pEC50 of COc1cccc(-n2nc3c4cc(Cl)ccc4[nH]cc-3c2=O)c1 [Compound 3] ?
Solution: 5.51

* * *

- TEST_METHOD_NOTES: Solubility limit in the assay buffer
- Type: physicochemical
- SETTINGS: aqueous buffer
METRIC: solubility (µM)
Numbers only; they are read as µM.

Exercise: Which solubility is listed for COc1ccccc1-n1nc2c3cc(Cl)ccc3[nH]cc-2c1=O [Compound 4] ?
Solution: 30
